# Test system: U2OS
# procedure-text: cell viability relative to DMSO; higher = less toxic
# test-conditions: 72 h; 10000 nM
compounds and their reported cell viability
property-label: cell viability (%)

[
  {
    "compound": "CCNC(=O)/C=C/c1cccc(Br)c1 [cinromide]",
    "system-tested": "U2OS",
    "reading": 98.5
  },
  {
    "compound": "O=C(Nc1ccc(C(=O)O)c(O)c1)c1ccccc1",
    "system-tested": "U2OS",
    "reading": 101
  },
  {
    "compound": "N#Cc1cc2nc(O)c(O)nc2cc1[N+](=O)[O-]",
    "system-tested": "U2OS",
    "reading": 96.8
  },
  {
    "compound": "CC1(c2ccccc2)OC(C(=O)O)=CC1=O (stereo unspecified)",
    "system-tested": "U2OS",
    "reading": 104
  },
  {
    "compound": "COc1ccccc1CN[C@H]1CCCN[C@H]1c1ccccc1",
    "system-tested": "U2OS",
    "reading": 97.4
  },
  {
    "compound": "O=C(O)[C@H](O)[C@@H](O)[C@H](O)[C@H](O)CO [sodium-gluconate]",
    "system-tested": "U2OS",
    "reading": 103
  }
]
